Reference for the values: patent US6803374B2

Biological target: HCV NS5B RdRp genotype 1b (Hepatitis C virus genotype 1b)
Construct: The protein was expressed with an 18 amino acid C-terminal truncation to enhance the solubility
Assay: HCV NS5B RdRp enzyme assay
Conditions: IC50, HCV RdRp genotype 1b enzyme, C-terminal 18 aa truncated; average of single point IC50 values
PROPERTY_MEASURED: pIC50
pIC50 here is simply -log10 of the concentration when that concentration is written in mol/L.

input: Form: Entry = O=C(O)c1ccc(-c2ccc(CO)cc2)c(COc2ccc(-c3nc4cc(-c5nnn[nH]5)ccc4n3C3CCCCC3)cc2)c1 | System = HCV NS5B RdRp genotype 1b (Hepatitis C virus genotype 1b) | pIC50 = ____
output: 7.30

input: Next: CN1CCN(C(=O)c2ccc(-c3cccc(O)c3)c(COc3ccc(-c4nc5cc(-c6nnn[nH]6)ccc5n4C4CCCCC4)cc3)c2)CC1
output: 5.92

input: How about this molecule: O=C(O)CNC(=O)c1ccc(-c2ccc3[nH]cc(C(=O)C(F)(F)F)c3c2)c(COc2ccc(-c3nc4cc(-c5nnn[nH]5)ccc4n3C3CCCCC3)cc2)c1
output: 6.59

input: Please give the result for CC(C)(C)OC(=O)CNC(=O)c1ccc(-c2ccc(F)c(Cl)c2)c(COc2ccc(-c3nc4cc(-c5nnn[nH]5)ccc4n3C3CCCCC3)cc2)c1 too.
output: 5.92

input: Repeat with COc1ccc(-c2ccc(C(=O)NC(Cc3ccc(O)cc3)C(=O)O)cc2COc2ccc(-c3nc4cc(-c5nnn[nH]5)ccc4n3C3CCCCC3)cc2)cc1OC (centres unmarked)
output: 7.05

###

For each of the compounds below, state its pIC50.
Target: HCV NS5B RdRp genotype 1b (Hepatitis C virus genotype 1b, UniProt Q9WMX2)
Construct: The protein was expressed with an 18 amino acid C-terminal truncation to enhance the solubility
Sequence (Q9WMX2 2420-2992): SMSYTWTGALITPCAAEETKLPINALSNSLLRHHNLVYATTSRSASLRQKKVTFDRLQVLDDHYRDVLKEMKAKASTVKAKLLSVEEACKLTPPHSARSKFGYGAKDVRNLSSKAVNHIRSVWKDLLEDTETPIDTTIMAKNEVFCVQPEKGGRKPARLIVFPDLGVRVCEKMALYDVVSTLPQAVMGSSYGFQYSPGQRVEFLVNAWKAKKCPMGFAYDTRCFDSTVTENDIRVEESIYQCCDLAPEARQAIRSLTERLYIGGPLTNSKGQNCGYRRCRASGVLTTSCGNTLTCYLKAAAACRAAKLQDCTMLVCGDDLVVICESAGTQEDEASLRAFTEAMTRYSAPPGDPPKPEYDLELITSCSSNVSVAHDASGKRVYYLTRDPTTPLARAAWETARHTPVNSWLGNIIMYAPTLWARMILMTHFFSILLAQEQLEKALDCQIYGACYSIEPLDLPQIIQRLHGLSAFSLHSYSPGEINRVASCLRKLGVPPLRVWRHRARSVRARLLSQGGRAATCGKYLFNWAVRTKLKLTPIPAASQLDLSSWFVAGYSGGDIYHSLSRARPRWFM
Experiment: HCV NS5B RdRp enzyme assay
Conditions: IC50, HCV RdRp genotype 1b enzyme, C-terminal 18 aa truncated; average of single point IC50 values
On this scale, pIC50 is minus log10 of a concentration expressed in M (mol/L).

input: For the compound shown here, O=C(O)CNC(=O)c1ccc(-c2ccsc2)c(COc2ccc(-c3nc4cc(-c5nnn[nH]5)ccc4n3C3CCCCC3)cc2)c1 , give the reported pIC50.
output: 7.10

input: Also need O=C(O)c1ccc(-c2ccc(F)cc2)c(COc2ccc(-c3nc4cc(-c5nnn[nH]5)ccc4n3C3CCCCC3)cc2)c1 , thanks.
output: 7.30

input: What about this compound? O=C(c1ccc(-c2ccc(F)c(Cl)c2)c(COc2ccc(-c3nc4cc(-c5nnn[nH]5)ccc4n3C3CCCCC3)cc2)c1)N(CCO)CCO
output: 5.96

###

Target: HCV NS5B RdRp genotype 1b (Hepatitis C virus genotype 1b)
Construct: The protein was expressed with an 18 amino acid C-terminal truncation to enhance the solubility
Test: HCV NS5B RdRp enzyme assay
Conditions: IC50, HCV RdRp genotype 1b enzyme, C-terminal 18 aa truncated; average of single point IC50 values
Assign IC50 to each entry below.
Kindly answer with a numeric value in µM, unit omitted.

input: So what's the measured IC50 for this one? O=C(O)c1ccc(-c2ccccc2)c(COc2ccc(-c3nc4cc(-c5nnn[nH]5)ccc4n3C3CCCCC3)cc2)c1 [Example 35]
output: 0.07

input: Then this compound: O=C(O)c1ccc(-c2ccc3[nH]ccc3c2)c(COc2ccc(-c3nc4cc(-c5nnn[nH]5)ccc4n3C3CCCCC3)cc2)c1 [Example 121]
output: 0.03

input: Again, but for COc1ccccc1-c1nc(COc2ccc(-c3nc4cc(-c5nnn[nH]5)ccc4n3C3CCCCC3)cc2)no1 [Example 5]
output: 0.36

input: Do the same for COc1ccc(-c2ccc(C(=O)NCCC(N)=O)cc2COc2ccc(-c3nc4cc(-c5nnn[nH]5)ccc4n3C3CCCCC3)cc2)cc1OC [Example 63] please
output: 0.15

input: Same lookup for CC(=O)c1ccc(-c2ccc(C(=O)O)cc2COc2ccc(-c3nc4cc(-c5nnn[nH]5)ccc4n3C3CCCCC3)cc2)s1 [Example 120] , please.
output: 0.02

input: Another compound to look at: O=C(NC(Cc1ccc(O)cc1)C(=O)O)c1ccc(-c2cccc(O)c2)c(COc2ccc(-c3nc4cc(-c5nnn[nH]5)ccc4n3C3CCCCC3)cc2)c1 (stereo not shown) [Example 53]
output: 0.57

input: Would you mind doing O=C(O)c1ccc(-c2ccc(C(F)(F)F)cc2)c(COc2ccc(-c3nc4cc(-c5nnn[nH]5)ccc4n3C3CCCCC3)cc2)c1 [Example 31] as well?
output: 0.06

input: Try the compound CNC(=O)c1ccc(-c2ccsc2)c(COc2ccc(-c3nc4cc(-c5nnn[nH]5)ccc4n3C3CCCCC3)cc2)c1 [Example 136]
output: 0.22

input: Thanks! And CC(=O)c1ccc(-c2ccc(C(=O)O)cc2COc2ccc(-c3nc4cc(-c5nnn[nH]5)ccc4n3C3CCCCC3)cc2)cc1 [Example 45] ?
output: 0.08

input: What about this compound? O=C(O)c1ccc(-c2cccs2)c(COc2ccc(-c3nc4cc(-c5nnn[nH]5)ccc4n3C3CCCCC3)cc2)c1 [Example 114]
output: 0.07

###

Target: HCV NS5B RdRp genotype 1b (Hepatitis C virus genotype 1b)
Construct: The protein was expressed with an 18 amino acid C-terminal truncation to enhance the solubility
Test: HCV NS5B RdRp enzyme assay
Settings: IC50, HCV RdRp genotype 1b enzyme, C-terminal 18 aa truncated; average of single point IC50 values
PROPERTY_MEASURED: pIC50
pIC50 (log units): -log10 of the concentration in mol/L.

input: Write down the reported pIC50 of O=C(c1ccc(-c2ccsc2)c(COc2ccc(-c3nc4cc(-c5nnn[nH]5)ccc4n3C3CCCCC3)cc2)c1)N1CCOCC1 , test system: HCV NS5B RdRp genotype 1b (Hepatitis C virus genotype 1b).
output: 5.96

input: Next record, please: CC(C)(C)OC(=O)CNC(=O)c1ccc(-c2ccsc2)c(COc2ccc(-c3nc4cc(-c5nnn[nH]5)ccc4n3C3CCCCC3)cc2)c1
output: 5.55

input: And the next one, COc1ccc(-c2ccc(C(=O)N3CCCC3)cc2COc2ccc(-c3nc4cc(-c5nnn[nH]5)ccc4n3C3CCCCC3)cc2)cc1OC ?
output: 6.34

input: Another compound: COC(=O)c1ccc(C(=O)NS(=O)(=O)c2ccc3c(c2)nc(-c2ccc(OCc4ccccc4)cc2)n3C2CCCCC2)cc1
output: 5.28

input: Same read-out for COc1ccc(-c2ccc(C(=O)O)cc2COc2ccc(-c3nc4cc(-c5nnn[nH]5)ccc4n3C3CCCCC3)cc2)cc1 ?
output: 7.40

input: Same lookup for O=C(O)C(=O)NS(=O)(=O)c1ccc2c(c1)nc(-c1ccc(OCc3ccccc3)cc1)n2C1CCCCC1 , please.
output: 5.09
